System name: T1, P2-AA
T1 chain: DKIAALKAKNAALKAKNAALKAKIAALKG
Assay remarks: two-hybrid library CCmax;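 note: natural log of median RNA to DNA barcode read ratio; higher means stronger binding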
Run conditions: mean of both orientations
Assay endpoint: interaction score
Enter a number only.

Some binders with known interaction score results, for comparison:
INPUT: interaction score for DEEAALEAKAAALKAELAANEAKLAAAKG [AP6-AA] ?
OUTPUT: -1.88

INPUT: Next entry: DELAAIEAEIAALEAKKAALKAKNAALKG [AP3-AA]
OUTPUT: -1.75

---
INPUT: interaction score for DEIAALEATNAALTAENAALEAEIAALEG [P1-AA-1HGe-T] ?
OUTPUT: 2.07

INPUT: Next entry: DENAALEAEIAALEAEIAALEAKNAALKG [P11-AA]
OUTPUT: 0.243

INPUT: Next entry: DEIAALEAESAALEAENAALEAEIAALEG [P1-AA-1HAA-S]
OUTPUT: 2.06

INPUT: Next entry: DEIAALEAEIAALEAENAALEAEIAALEG [P1-AA-1HAA-I]
OUTPUT: 2.21

INPUT: Next entry: DEIAALEAERAALEAERAALEAEIAALEG [P1-AA-12HAA-R]
OUTPUT: 1.8
